molecular target: GP IIb IIIa (Homo sapiens, UniProt P05106+P08514); construct: from tissue; host or cells: outdated human platelets; assay: Fibrinogen-GP IIb IIIa Receptor ELISA Binding Assay (Fg/IIbIIIa); conditions: Examples 29 and 30, Cmpd # tables; read-out: IC50 (μM) Fg/IIbIIIa
Sequence (P08514 32-887 limits assumed): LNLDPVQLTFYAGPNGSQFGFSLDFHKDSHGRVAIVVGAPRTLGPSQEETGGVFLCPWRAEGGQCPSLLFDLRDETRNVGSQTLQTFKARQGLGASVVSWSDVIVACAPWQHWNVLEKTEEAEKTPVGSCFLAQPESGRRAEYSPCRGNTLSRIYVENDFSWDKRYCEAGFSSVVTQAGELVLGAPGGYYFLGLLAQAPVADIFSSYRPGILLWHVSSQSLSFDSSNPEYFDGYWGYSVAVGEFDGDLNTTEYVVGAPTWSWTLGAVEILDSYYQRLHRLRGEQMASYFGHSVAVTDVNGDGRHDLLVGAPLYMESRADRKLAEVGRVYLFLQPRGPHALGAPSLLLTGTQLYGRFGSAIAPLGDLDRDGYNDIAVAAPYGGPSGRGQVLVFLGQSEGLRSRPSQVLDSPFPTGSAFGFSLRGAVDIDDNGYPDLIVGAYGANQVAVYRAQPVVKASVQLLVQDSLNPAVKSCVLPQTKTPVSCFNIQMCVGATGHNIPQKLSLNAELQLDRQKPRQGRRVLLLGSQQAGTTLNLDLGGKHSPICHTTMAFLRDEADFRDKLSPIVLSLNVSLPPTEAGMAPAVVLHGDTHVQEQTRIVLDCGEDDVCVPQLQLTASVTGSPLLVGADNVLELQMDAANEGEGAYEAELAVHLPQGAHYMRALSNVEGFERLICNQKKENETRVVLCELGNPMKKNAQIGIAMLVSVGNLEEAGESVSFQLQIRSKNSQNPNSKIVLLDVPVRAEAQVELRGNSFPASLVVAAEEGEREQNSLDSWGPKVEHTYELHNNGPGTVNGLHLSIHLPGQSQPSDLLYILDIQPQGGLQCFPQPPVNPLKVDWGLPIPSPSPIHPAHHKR
Sequence (P08514 891-1039 partner limits assumed): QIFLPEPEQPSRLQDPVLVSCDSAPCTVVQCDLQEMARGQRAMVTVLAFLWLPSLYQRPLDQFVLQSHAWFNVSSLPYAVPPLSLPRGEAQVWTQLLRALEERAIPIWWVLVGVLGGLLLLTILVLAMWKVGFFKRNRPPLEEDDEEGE
Sequence (P05106 27-788): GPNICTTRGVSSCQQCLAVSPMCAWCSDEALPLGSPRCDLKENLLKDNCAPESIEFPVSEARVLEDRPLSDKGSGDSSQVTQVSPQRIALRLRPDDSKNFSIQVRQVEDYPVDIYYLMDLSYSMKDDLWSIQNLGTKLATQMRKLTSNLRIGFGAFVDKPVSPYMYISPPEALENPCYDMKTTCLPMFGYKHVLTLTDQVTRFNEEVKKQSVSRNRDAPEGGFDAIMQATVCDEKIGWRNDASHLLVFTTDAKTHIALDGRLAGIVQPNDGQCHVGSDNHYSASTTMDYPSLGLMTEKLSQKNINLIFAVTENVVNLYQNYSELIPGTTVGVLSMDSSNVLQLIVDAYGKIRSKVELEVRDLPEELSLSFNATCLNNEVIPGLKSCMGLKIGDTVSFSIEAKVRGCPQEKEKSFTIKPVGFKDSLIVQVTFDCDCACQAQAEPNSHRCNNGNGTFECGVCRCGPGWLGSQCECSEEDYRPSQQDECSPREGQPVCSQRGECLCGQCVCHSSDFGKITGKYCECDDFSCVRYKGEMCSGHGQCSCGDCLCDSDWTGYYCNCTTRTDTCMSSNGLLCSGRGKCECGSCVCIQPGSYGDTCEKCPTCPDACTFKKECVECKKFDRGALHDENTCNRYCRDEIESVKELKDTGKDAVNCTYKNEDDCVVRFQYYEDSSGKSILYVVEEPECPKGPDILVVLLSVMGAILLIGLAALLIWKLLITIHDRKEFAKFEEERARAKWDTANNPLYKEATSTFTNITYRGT

[
  {
    "compound": "N=C(N)NCCCCCCc1ccc2c(c1)C(=O)N(CCC(=O)O)CC(=O)N2Cc1cccc(NC(=O)CCNC(=N)N)c1 [Cmpd 111]",
    "IC50 (µM)": 0.01
  },
  {
    "compound": "N=C(N)NCCCCCCc1ccc2c(c1)C(=O)N(CCC(=O)O)CC(=O)N2Cc1cccc(NC(=O)CCCNC(=N)N)c1 [Cmpd 113]",
    "IC50 (µM)": 0.01
  }
]

====

Here, each record is paired with measured IC50 data.
Target: GP IIb IIIa (Homo sapiens, UniProt P05106+P08514)
Construct: from tissue; host or cells: outdated human platelets
Assay: Fibrinogen-GP IIb IIIa Receptor ELISA Binding Assay (Fg/IIbIIIa)
Conditions: Example 29, Cmpd # 1-105; read-out: IC50 Fg/IIbI
Method: Briefly, microtiter plates are coated with fibrinogen (10 mg/ml) and then blocked with TACTS buffer containing 0.5% bovine serum albumin (BSA). […] After another wash a goat anti-mouse IgG conjugated to horseradish peroxidase is added. […] The reaction is stopped with 1N sulfuric acid and the absorbance at 492 nm is recorded. […] The optical density at 492 nm vs 405 nm is recorded and IC50 values are determined.
Where a name gives a salt, the structure may show the parent alone.
readout-name: IC50 (nM)

[
  {
    "molecule": "CN1C(=O)C2CCC(CC(=O)O)N2C(=O)c2cc(CCCNC(=N)N)ccc21 (centres unmarked) [Cmpd 16]",
    "readout-name": "IC50",
    "output-unit": "nM",
    "censoring-sign": ">",
    "number": 100000
  },
  {
    "molecule": "NCCCCCCc1ccc2c(c1)C(=O)N(CCC(=O)O)CC(=O)N2C(c1ccccc1)c1ccccc1 [Cmpd 72, trifluoroacetate]",
    "readout-name": "IC50",
    "output-unit": "nM",
    "censoring-sign": "=",
    "number": 22
  },
  {
    "molecule": "COc1ccc(CN2C(=O)CN(CCC(=O)O)C(=O)c3cc(CCCCCNC(=N)N)ccc32)cc1 [Cmpd 79, trifluoroacetate]",
    "readout-name": "IC50",
    "output-unit": "nM",
    "censoring-sign": "=",
    "number": 11
  },
  {
    "molecule": "NCCCc1ccc2c(c1)C(=O)N(CCC(=O)O)CC(=O)N2 [Cmpd 1]",
    "readout-name": "IC50",
    "output-unit": "nM",
    "censoring-sign": "=",
    "number": 8300
  },
  {
    "molecule": "CN1C(=O)CN(CCC(=O)O)C(=O)c2cc(CCCCCCNC(=N)N)ccc21 [Cmpd 40]",
    "readout-name": "IC50",
    "output-unit": "nM",
    "censoring-sign": "=",
    "number": 120
  },
  {
    "molecule": "N=C(N)NCCCC#Cc1ccc2c(c1)C(=O)N(CCC(=O)O)CC(=O)N2Cc1ccc(Cl)cc1 [Cmpd 59]",
    "readout-name": "IC50",
    "output-unit": "nM",
    "censoring-sign": "=",
    "number": 9
  },
  {
    "molecule": "CN1C(=O)CN(CCC(=O)O)C(=O)c2cc(CCCCNC(=N)N)ccc21 [Cmpd 20]",
    "readout-name": "IC50",
    "output-unit": "nM",
    "censoring-sign": "=",
    "number": 250
  },
  {
    "molecule": "N=C(N)NCCCC#Cc1ccc2c(c1)C(=O)N(CCC(=O)O)CC(=O)N2Cc1cccc([N+](=O)[O-])c1 [Cmpd 36]",
    "readout-name": "IC50",
    "output-unit": "nM",
    "censoring-sign": "=",
    "number": 3.2
  },
  {
    "molecule": "CN1C(=O)C2CCC(CC(=O)O)N2C(=O)c2cc(CCCN)ccc21 (centres unmarked) [Cmpd 15]",
    "readout-name": "IC50",
    "output-unit": "nM",
    "censoring-sign": ">",
    "number": 100000
  },
  {
    "molecule": "NCCCCCCc1ccc2c(c1)C(=O)N(CCC(=O)O)CC(=O)N2Cc1ccc(F)cc1F [Cmpd 103]",
    "readout-name": "IC50",
    "output-unit": "nM",
    "censoring-sign": "=",
    "number": 21
  },
  {
    "molecule": "CN1C(=O)CN(C(CC(=O)O)c2ccccc2)C(=O)c2cc(C#CCCCCNC(=N)N)ccc21 (centres unmarked) [Cmpd 54]",
    "readout-name": "IC50",
    "output-unit": "nM",
    "censoring-sign": "=",
    "number": 100
  },
  {
    "molecule": "NCCCCCCc1ccc2c(c1)C(=O)N(CCC(=O)O)CC(=O)N2Cc1cccc(Oc2ccccc2)c1 [Cmpd 94, trifluoroacetate]",
    "readout-name": "IC50",
    "output-unit": "nM",
    "censoring-sign": "=",
    "number": 9
  },
  {
    "molecule": "N=C(N)NCCCCCc1ccc2c(c1)C(=O)N(CCC(=O)O)CC(=O)N2 [Cmpd 30]",
    "readout-name": "IC50",
    "output-unit": "nM",
    "censoring-sign": "=",
    "number": 204
  },
  {
    "molecule": "CC1C(=O)N(C)c2ccc(C#CCCNC(=N)N)cc2C(=O)N1CCC(=O)O (centres unmarked) [Cmpd 26]",
    "readout-name": "IC50",
    "output-unit": "nM",
    "censoring-sign": "=",
    "number": 80000
  },
  {
    "molecule": "CC1C(=O)N(C)c2ccc(C#CCNC(=N)N)cc2C(=O)N1CCC(=O)O (centres unmarked) [Cmpd 10]",
    "readout-name": "IC50",
    "output-unit": "nM",
    "censoring-sign": "=",
    "number": 30000
  },
  {
    "molecule": "N=C(N)NCCCCC#Cc1ccc2c(c1)C(=O)N(CCC(=O)O)CC(=O)N2Cc1cccc([N+](=O)[O-])c1 [Cmpd 56]",
    "readout-name": "IC50",
    "output-unit": "nM",
    "censoring-sign": "=",
    "number": 6
  },
  {
    "molecule": "COc1ccc(CN2C(=O)CN(CCC(=O)O)C(=O)c3cc(CCCCCCN)ccc32)cc1 [Cmpd 81, trifluoroacetate]",
    "readout-name": "IC50",
    "output-unit": "nM",
    "censoring-sign": "=",
    "number": 23
  },
  {
    "molecule": "NCCCCCc1ccc2c(c1)C(=O)N(CCC(=O)O)CC(=O)N2C(c1ccccc1)c1ccccc1 [Cmpd 68, trifluoroacetate]",
    "readout-name": "IC50",
    "output-unit": "nM",
    "censoring-sign": "=",
    "number": 20
  },
  {
    "molecule": "NCCCCCc1ccc2c(c1)C(=O)N(CCC(=O)O)CC(=O)N2Cc1cccc(Oc2ccccc2)c1 [Cmpd 95, trifluoroacetate]",
    "readout-name": "IC50",
    "output-unit": "nM",
    "censoring-sign": "=",
    "number": 108
  },
  {
    "molecule": "CC1C(=O)N(C)c2ccc(CCCCN)cc2C(=O)N1CCC(=O)O (centres unmarked) [Cmpd 23]",
    "readout-name": "IC50",
    "output-unit": "nM",
    "censoring-sign": ">",
    "number": 100000
  }
]
